Species: Cavia porcellus
ASSAY OVERVIEW: Negative chronotropic activity in guinea pig right atrium at 50 uM
Assay type: functional, Cardiac atrium
Activity reference

Solved entries (count: 5):
| COMPOUND STRUCTURE | RESULT |
| --- | --- |
| CO/N=C/c1c(Sc2ccccc2C(=O)OC)nc2sccn12 | 13% |
| Cc1snc(S(=O)(=O)Cc2c(F)cccc2Cl)c1C#N | 22% |
| O=S(=O)(c1ccc(Br)cc1)N1CCCCCC1 | 4% |
| O=S(=O)(c1ccc(Cl)cc1)N(C1CCNCC1)C1CC1 | 64% |
| CC(=O)c1ccccc1N1C(=O)CSCC1=O | 3% |

Note: attention shifts to another entry.
What the record says about CCO[C@@]1(c2ccc(Br)cc2)SC=C(C)n2c1noc2=O : Activity is 15%
